System: TNFα
assay.info: cells
Assay type: cell-based, human
condition.label: Homo sapiens, Monocyte, LPS-stimulated human monocytes, TNFα content; read-out: EC50 TNF
Class boundaries, taken from values of EC50, are as follows: small value = under 40 nM, mid value = from 40 nM up to 200 nM, large value = 200 nM and over

{"columns": ["molecule", "measured.target", "assigned.category"],
 "data": [
  ["CC(C)Nc1cc(-c2ccc3cc(C(N)=O)cnn23)ncc1C(=O)NCC1CCS(=O)(=O)C1 (stereo not drawn) [Example 9]", "TNFα", "large value"],
  ["CC(C)(O)[C@H](F)CNC(=O)c1cnc(-c2ccc3cc(C#N)cnn23)cc1Nc1ccc(CNC(=O)C2CC2)cc1 [Example 202]", "TNFα", "small value"],
  ["CC(C)NC(=O)c1cnc(-c2ccc3cc(C#N)cnn23)cc1NC(C)C [Example 369]", "TNFα", "large value"],
  ["CC(C)(O)[C@H](F)CNC(=O)c1cnc(-c2ccc3cc(C#N)cnn23)cc1N[C@]1(C)C[C@@H](O)C1 [Example 429]", "TNFα", "small value"],
  ["COC(=O)NC12CCC(Nc3cc(-c4ccc5cc(C#N)cnn45)ncc3C(=O)NC[C@@H](F)C(C)(C)O)(CC1)CC2 [Example 311]", "TNFα", "small value"],
  ["CC(C)(O)[C@H](F)CNC(=O)c1cnc(-c2ccc3cc(C#N)cnn23)cc1Nc1cnn(C(F)F)c1 [Example 48]", "TNFα", "small value"],
  ["CC(C)Nc1cc(-c2ccc3cc(C#N)cnn23)ncc1C(=O)N[C@H]1CCC[C@H](O)C1 [Example 191]", "TNFα", "mid value"],
  ["CN1CC2C[C@@H](Nc3cc(-c4ccc5cc(C#N)cnn45)ncc3C(=O)NC[C@@H](F)C(C)(C)O)C[C@@H]2C1 (stereo partly drawn) [Example 245]", "TNFα", "mid value"],
  ["CC(C)(O)[C@H](F)CNC(=O)c1cnc(-c2ccc3cc(C#N)cnn23)cc1NC1CCNCC1 [Example 23]", "TNFα", "large value"],
  ["CC(C)(O)[C@H](F)CNC(=O)c1cnc(-c2ccc3cc(C#N)cnn23)cc1Nc1ccc(-c2nncs2)cc1 [Example 771]", "TNFα", "small value"],
  ["CC(C)Nc1cc(-c2ccc3cc(C#N)cnn23)ncc1C(=O)NCCC1(O)CCOCC1 [Example 95]", "TNFα", "mid value"],
  ["CC(C)(O)[C@H](F)CNC(=O)c1cnc(-c2ccc3cc(C#N)cnn23)cc1Nc1ccc(-n2ccnn2)cc1 [Example 180]", "TNFα", "small value"],
  ["N#CCNC(=O)c1cnc(-c2ccc3cc(C#N)cnn23)cc1NC12CCC(C(=O)NC3COC3)(CC1)CC2 [Example 454]", "TNFα", "large value"],
  ["CC(=O)NCc1cccc(Nc2cc(-c3ccc4cc(C#N)cnn34)ncc2C(=O)NC[C@@H](F)C(C)(C)O)c1 [Example 220]", "TNFα", "mid value"],
  ["CC(C)(O)[C@H](F)CNC(=O)c1cnc(-c2ccc3cc(C#N)cnn23)cc1NC1CCS(=O)(=O)C1 (stereo partly drawn) [Example 76]", "TNFα", "large value"]
]}

Ref: patent US10336762B2
